# PROTOCOL_DETAILS: soluble on expression in E. coli; label from the status in PepcDB or PDB records
REPORTED_ENDPOINT: soluble on expression in E. coli

>>> result_value("QVQLLESGPELVEPGASVKVSCKASAYSITDFNIYWVKQSHGKNLEWIGGIDPHNGGPVYNQKFNGKATLTVDKSSSTAFMHLNSLTSEDSAVYYCAIFYGNFFDYWGPGTTVTVSSASTKGPSVFPLAPSSKSTSGGTAALGCLVKDYFPEPVTVSWNSGALTSGVHTFPAVLQSSGLYSLSSVVTVPSSSLGTQTYICNVNHKPSNTKVDKKVEPKSCDKTHT")
"soluble"
>>> result_value("SMRYTVSNLSMQTHAARFKTFFNWPSSVLVNPEQLASAGFYYVGNSDDVKCFCCDGGLRCWESGDDPWVQHAKWFPRCEYLIRIKGQEFIRQVQAS")
"soluble"

---

# PROTOCOL_DETAILS: soluble on expression in E. coli; label from the status in PepcDB or PDB records
REPORTED_ENDPOINT: soluble on expression in E. coli

>>> result_value("MGSDKIHHHHHHMKKILVVGDFIKGSGLTNYLLNIYSSLPKDEFLISCVSYSGQHNIDTVLEEKKWEKFEVTPITQDIIKHFKDWNNFFKLHGNDFDEIHFNYSAPWNFIAILLAKLKSKAKIIVQSHNNYYSKQPKGLQKKVLAVLNVTGRTVIGRCSDIRLAVSEDSAQWMFGKRNVQILKNGINLKDFEYQPGPREELRKSIGINKGKKIIGFVGTLEKRKNPYFAIECLKKLNKEYILLMFGQGVLKKDLEKKIMDEGLEHRIKLMGVVDNLNEWYSVFDLFLFPSLTEGFGFALLEAQANGLKCFSSTSIPKEAKITNDVTSLNLSEINKWIDEIEKTSINDRERRSKQNCRIIEKKGFSIENTSKQFKRILLGDLS")
"not soluble"
>>> result_value("MIPEEIYKILRKQRYQIDGHTAVKLCGWVRKKMLEDKNCYKSKFYGIETHRCIQCTPSVIWCQQNCIFCWRVLPRDIGIDISQIKEPKWEEPEVVYEKILAMHKRIIMGYAGVLDRVGEKKFKEALEPKHVAISLSGEPTLYPYLDELIKIFHKNGFTTFVVSNGILTDVIEKIEPTQLYISLDAYDLDSYRRICGGKKEYWESILNTLDILKEKKRTCIRTTLIRGYNDDILKFVELYERADVHFIELKSYMHVGYSQKRLKKEDMLQHDEILKLAKMLDENSSYKLIDDSEDSRVALLQNENRKINPKL")
"soluble"
>>> result_value("ARQENPCGPCSERRKHLFVQDPQTCKCSCKNTDSRCKARQLELNERTCRCDKPRR")
"soluble"
>>> result_value("MSLETKVAARDLSSLLSHCEAPVAALTVTAFKCKASACSVAPAPGSNTGLGALMSMAQAAQGLQTFPNIGDGLSNALTTALKTTGCFKVMAREDFEDLRREAEAAGITLKSASADYLVTGAITSLAVGAKTQSFGGGFVPLVGAVSRSTKSANISIDVRLVDVKASEVKASQTFDVSNERSSWGAGGAGWGGSGALFGAASSTQSPELDSVANESVIQAANYIVTQVAGSAAIPPVAAITKEGHHHHHH")
"not soluble"
>>> result_value("MSLSVKILFKNATVFPITSRPFKGDVLVSNGKVEKVGENIEDPDAEIVDLTGKFLFPGFVDAHSHIGLFEEGVGYYYSDGNEATDPVTPHVKALDGFNPQDPAIERALAGGVTSVMIVPGSANPVGGQGSVIKFRSIIVEECIVKDPAGLKMAFGENPKRVYGERKQTPSTRMGTAGVIRDYFTKVKNYMKKKELAQKEGKEFTETDLKMEVGEMVLRKKIPARMHAHRADDILTAIRIAEEFGFNLVIEHGTEAYKISKVLAEKKIPVVVGPLLTFRTKLELKDLTMETIAKLLKDGVLIALMCDHPVIPLEFATVQAATAMRYGAKEEDLLKILTVNPAKILGLEDRIGSIEPGKDADLVVWSGHPFDMKSVVERVYIDGVEVFRREGHHHHHH")
"soluble"
>>> result_value("INYKQLQLQERTNIRKCQELLEQLNGKINLTYRADFKIPMEMTEKMQKSYTAFAIQEMLQNVFLVFRNNFSSTGWNETIVVRLLDELHQQTVFLKTVLEEKQEERLTWEMSSTALHLKSYYWRVQRYLKLMKYNSYAWMVVRAEIFRNFLIIRRLTRNFQN")
"soluble"

---

# PROTOCOL_DETAILS: soluble on expression in E. coli; label from the status in PepcDB or PDB records
REPORTED_ENDPOINT: soluble on expression in E. coli

>>> result_value("GPGSTGASLGMMWKDKLNAMTKEEFTRYKRAGVMETDRKEARDYLKRGDGKTGLSVSRGTAKLAWMEERGYVELTGRVVDLGCGRGGWSYYAASRPHVMDVRAYTLGVGGHEVPRITESYGWNIVKFKSRVDIHTLPVERTDVIMCDVGESSPKWSVESERTIKILELLEKWKVKNPSADFVVKVLCPYSVEVMERLSVMQRKWGGGLVRNPYSRNSTHEMYFTSRAGGNIIGAVTACTERLLGRMARRDGPVVVPELNLGTGTR")
"soluble"
>>> result_value("MNFLEASWEEREVTAYKAILGDTGLGIFPLSHELFKRMSASGINPRWLTHGVFKSPPNGNRSTWAYITSGMSNPWETNEPEEHSGLGVEFIIETEKEETWAVEVLQMLMAYNLLLAAGQMGDFPLLGDGDRVPLALSDAIRTMMFTQPVSFPHCFSLKSGRVDLLQVVGITPAELQVAKQTSSDKIRTQLISKLGSLVTSKERESVVLEHHHHHH")
"not soluble"
>>> result_value("GMVEPMTPRFKYTKASQENIQQLGNILEQCFVMSFGDSEIYVKGIGLENFRVIYREQKVAGGLAILPMGQWWGGQRVPMAGIAAVGIAPEYRGDGAAIALIQHTLQEISEQDIPISVLYPATQRLYRKAGYEQAGSSCVWEIPTDSIQIQHASLPLEPVVLKNNPIFHELYQQQAQLTHGYLDRHPAIWQGLNRTLDTETLYSYLIGDKDKPQGYIIFTQERTRDGSILRIRDWVTLSNPAVQSFWTFIANHRSQIDKVTWKSSVIDALTLLLPEQSATIRSQDRWMLRIVNVCKALEARGYPLGVEAELHLEVQDDLLATNQGKFILSVANGKSEVTKGGKGELQLDIKGLASLYTSLFTPRQLQLTGKLQATETALLKATQIFAGESPWMIDFF")
"soluble"
>>> result_value("MELKSTRHTKYLCNYHFVWIPKHRRNTLVNEIAEYTKEVLKSIAEELGCEIIALEVMPDHIHLFVNCPPRYAPSYLANYFKGKSARLILKKFPQLNKGKLWTRSYFVATAGNVSSEVIKKYIEEQWRKEGEEE")
"soluble"
>>> result_value("MDDIVPDVLDAVPAGTIKVIYGDDLEVKQGNELTPTQVKDQPIVSWSGLEGKSNLLTLLMVDPDAPTRQDPKYREILHWSVVNIPGSNENPSGGHSLADYVGSGPPKDTGLHRYIFLLYRQENKIEETPTISNTTRTGRLNFNARDFAAKHGLGEPIAANYYQAQYDDYVPIRNKTIVG")
"soluble"
>>> result_value("MDFLQGDRGDYKSALGSLQQVGYGSVIAKIRLAFNATGSVLRKRVLKEEQIEETVAKELEERRRTWDVNNGQFDKFSQWYIEYRKNLWHKDDYLPWLLYENEISCLKLTFDVCERPPRRINYGGRNRYTCEN")
"not soluble"
>>> result_value("MKCRKCGEPSVYHQKHSGNKYCRTCFIKETKRKVRKTLGRDVLKNNIKVAMGLSGGKDSLVMAYLLNEFYKEIPNSKIIAIMVNEGIEGYRLDGIEAAVKFCEKHDIEYKIVQFKDYLGTNLDEIVKLAKEKNLTMNPCSFCGVIRRKILNRVSIEEKCDFLAIGHNLDDIAQAVMMNYIEGDVKKLAFLGKSLKHPKFVKRIKPLEKIPEDEVLLLADMLELTYHKSPCPYSCLSFRSEVSEITDTLEKNHPGTKYSIVRGYERLLEHIELPGYTGECKICGDLSATEVCKVCSYLKNLGILEKSKFEKI")
"not soluble"
>>> result_value("GIDPFTGIDPFTGTQACITAASAVSGIIADLDTTIMFATAGTLNREGAETFADHREGILKTAKVLVEDTKVLVQNAAGSQEKLAQAAQSSVATITRLADVVKLGAASLGAEDPETQVVLINAVKDVAKALGDLISATKAAAGKVGDDPAVWQLKNSAKVMVTNVTSLLKTVKAVEDEATKGTRALEATTEHIRQELAVFCSPEPPAKTSTPEDFIRMTKGITMATAKAVAAGNSCRQEDVIATANLSRRAIADMLRACKEAAFHPEVAPDVRLRALHYGRECANGYLELLDHVLLTLQKPNPDLKQQLTGHSKRVAGSVTELIQAAEAMKGT")
"soluble"
>>> result_value("MGSDKIHHHHHHMTSKLTEVSTPPQAAMPKSTLANEQENKVFIIGLPRTGTTSVSVALLEQGLTVAHQAFTKQAFMLADAVSDAPCFSDYQQLDKLFPNAKFVYLDRPLDKWLPSMQMLLGRMLVHLDKDKGRFHPVMKRSFNHCFDIWQVEDVFDEAHLTACYQRHQQQVMSYFAGRDDFISIDISVTGSLAKLLQFIDLAKPDTAEFRQLQYPQLQSQPQNFPQLNFPQLNFPQLNTGRNVASWDEYKHPNKISANASGPDKRKFFDYRL")
"not soluble"
>>> result_value("MSLETVLVPVDFTIEKEDLLGCIGEFKNAGLKKVILLHVVDIHKSQGLAPMFERNAKKRIEDYTGFAEELGLETEALVVVGDIKRTISETADRKNVDAIIMGATAKGFIKGRFLGRTTEHIARSSKKILLVEKYDALKEGKEFYKNACRATFSRVLVPLDFSKESMKAIEQLQEFGGIVKEVLLLHVIDNIKDMDLLDEQREEAKGKLGRIKEQLTGIKSQYLVVEGIPSDEIVKFANIEEATMIMLTSRGKGDLIDLILGSTAESVLRKTIKPVLIIPASKEFDGEEGHHHHHH")
"soluble"
>>> result_value("MGSDKIHHHHHHMRVALLMGGVSREREISLRSGERVKKALEKLGYEHTVFDVREDFLKKVDQLKSFDVVFNVLHGTFGEDVTLQAILDFLGIRYTGSDAFSSMICFDKLVTYRFLKGTVEIPDFVEIKEFMKTSPLGYPCVVKPRREGSSIGVFVCESDEEFQHALKEDLPRYGSVIVQKYIPGREMTVSILETEKGFEILPVLELRPKRRFYDYVAKYTKGETEFILPAPLNPSEERLVKEMALKAFVEAGCRGFGRVDGIFSDGRFYFLEINTVPGLTETSDLPASAKAGGIEFEELVEIILKSAFLKEGVRV")
"not soluble"
